assayed.target: T1, human TIGIT expressed on CHO-K1 cells (human, UniProt Q495A1 22-244)
T1 construct: whole, on cells; also called human TIGIT-CHO-K1 cells; human TIGIT over-expressing cell line
T1 sequence (looked up): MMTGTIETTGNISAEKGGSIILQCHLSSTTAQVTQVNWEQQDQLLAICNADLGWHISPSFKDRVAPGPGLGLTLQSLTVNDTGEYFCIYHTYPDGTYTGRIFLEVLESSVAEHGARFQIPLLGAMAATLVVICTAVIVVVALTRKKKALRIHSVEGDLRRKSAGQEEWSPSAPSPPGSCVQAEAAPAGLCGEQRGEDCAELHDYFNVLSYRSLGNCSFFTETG
measurement.protocol: flow cytometry on CHO-K1 cells expressing human TIGIT
Reported EC50 values for a set of binders
Reply with just the number (in nM).

input: Given huTIGIT-6-4 (antibody, human IgG1, kappa, V domains shown, Humanized IgG; also called 6VH6.M7 + 6VL1.M1) VH: QVQLVQSGAEVKKPGASVKVSCKASGYTFTENAMHWVRQAPGQRLEWIGGINPNNAGTSYSQKFQGRATLTVDTSASTAYMELSSLRSEDTAVYYCTRSSYYRYDLDYWGQGTTVTVSS VL: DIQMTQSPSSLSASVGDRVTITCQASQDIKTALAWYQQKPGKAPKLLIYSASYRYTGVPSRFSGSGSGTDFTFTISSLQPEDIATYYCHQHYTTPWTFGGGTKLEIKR , state its recorded EC50.
output: 1.02

input: For the binder huTIGIT-19-2 (antibody, human IgG1, kappa, V domains shown, Humanized IgG; also called 19VH4.M9 + 19VL1.M7) VH: QVQLVQSGAEVKKPGASVKVSCKASGYTFTRYSMYWVRQAPGQGLEWIAFIDAYSGGSTYNQRFRGKATLTVDTSISTAYMELSRLRSDDTAVYYCARGGDYGWYLGVWGQGTLVTVSS VL: DIQMTQSPSSLSASVGDRVTITCRASQSIYSYLSWYQQKPGKAPKLLIYNAKSLPSGVPSRFSGSGSGTDFTLTISSLQPEDFATYYCQHHYGNPLTFGQGTKVEIKR , what EC50 is on record?
output: 0.256
